Kindly state stoichiometry N for each of the entries shown.
# TARGET UNDER TEST: the molecule itself
# ASSAY TEXT: mass photometry; 100 nM protein diluted in PBS (pH 7.4), room temperature, 60 s acquisition, TwoMP mass photometer; monomer to dimer
No unit in the answer, only the number.

Input line: Which stoichiometry N value is on record for human ketohexokinase-A N42K (enzyme, ketohexokinase, splice isozyme A (KHK-A), human, with N42K; Expressed and purified as described for WT KHK-A; PDB 2HLZ is the wild-type parent; source: E. coli BL21-CodonPlus-RIL, purified (Ni-NTA, Superdex 200 gel filtration)) QILCVGLVVLDVISLVDKYPKEDSEIRCLSQRWQRGGKASNSCTVLSLLGAPCAFMGSMAPGHVADFVLDDLRRYSVDLRYTVFQTTGSVPIATVIINEASGSRTILYYDRSLPDVSATDFEKVDLTQFKWIHIEGRNASEQVKMLQRIDAHNTRQPPEQKIRVSVEVEKPREELFQLFGYGDVVFVSKDVAKHLGFQSAEEALRGLYGRVRKGAVLVCAWAEEGADALGPDGKLLHSDAFPPPRVVDTLGAGDTFNASVIFSLSQGRSVQEALRFGCQVAGKKCGLQGFDGIV ?
Output line: 2

Input line: Which stoichiometry N value is on record for human ketohexokinase-A N45A (enzyme, ketohexokinase, splice isozyme A (KHK-A), human, with N45A; Expressed and purified as described for WT KHK-A; PDB 2HLZ is the wild-type parent; source: E. coli BL21-CodonPlus-RIL, purified (Ni-NTA, Superdex 200 gel filtration)) QILCVGLVVLDVISLVDKYPKEDSEIRCLSQRWQRGGNASASCTVLSLLGAPCAFMGSMAPGHVADFVLDDLRRYSVDLRYTVFQTTGSVPIATVIINEASGSRTILYYDRSLPDVSATDFEKVDLTQFKWIHIEGRNASEQVKMLQRIDAHNTRQPPEQKIRVSVEVEKPREELFQLFGYGDVVFVSKDVAKHLGFQSAEEALRGLYGRVRKGAVLVCAWAEEGADALGPDGKLLHSDAFPPPRVVDTLGAGDTFNASVIFSLSQGRSVQEALRFGCQVAGKKCGLQGFDGIV ?
Output line: 2
